- system: rat follicle stimulating hormone receptor (rFSHR) (Rattus norvegicus)
- methodNotes: Intracellular cAMP measurement (HTRF) assay, antagonism of EC70 of hFSH
- assayContext: HEK293 cells expressing rFSHR, 1 ng/ml hFSH (EC70), read-out: Class (IC50 to antagonise an EC70 of FSH receptors agonist such as hFSH)
Item-by-item account of IC50
metricName: IC50

[[record]]
compound = "COc1ccc(C(=O)Nc2ccc(C(C)(C)C#N)c(C)c2)cc1OC [Example 95]"
metricname = "IC50"
result = "150 to 400 nM"

[[record]]
compound = "COc1ccc(C(=O)Nc2ccc(C(C)(C)CNC(=O)c3cn4cccnc4n3)cc2)cc1OC [Example 186]"
metricname = "IC50"
result = "≥ 1000 nM"

[[record]]
compound = "COc1ccc(C(=O)Nc2ccc(C(C)(C)CNC(=O)c3ccc4c(c3)n(C)c(=O)n4C)cc2)cc1OC [Example 210]"
metricname = "IC50"
result = "400 to 1000 nM"

[[record]]
compound = "COc1ccc(C(=O)Nc2ccc(C(C)(C)C#N)c(-c3ccccn3)c2)cc1OC [Example 183]"
metricname = "IC50"
result = "≥ 1000 nM"

[[record]]
compound = "COc1ccc(C(=O)Nc2ccc(C(C)(CO)CNC(=O)c3cnc4ccccn34)cc2)cc1OC (centres unmarked) [Example 212]"
metricname = "IC50"
result = "≥ 1000 nM"


###

Item-by-item account of pIC50
- system: rat follicle stimulating hormone receptor (rFSHR) (Rattus norvegicus)
- Sequence (P20395 18-692): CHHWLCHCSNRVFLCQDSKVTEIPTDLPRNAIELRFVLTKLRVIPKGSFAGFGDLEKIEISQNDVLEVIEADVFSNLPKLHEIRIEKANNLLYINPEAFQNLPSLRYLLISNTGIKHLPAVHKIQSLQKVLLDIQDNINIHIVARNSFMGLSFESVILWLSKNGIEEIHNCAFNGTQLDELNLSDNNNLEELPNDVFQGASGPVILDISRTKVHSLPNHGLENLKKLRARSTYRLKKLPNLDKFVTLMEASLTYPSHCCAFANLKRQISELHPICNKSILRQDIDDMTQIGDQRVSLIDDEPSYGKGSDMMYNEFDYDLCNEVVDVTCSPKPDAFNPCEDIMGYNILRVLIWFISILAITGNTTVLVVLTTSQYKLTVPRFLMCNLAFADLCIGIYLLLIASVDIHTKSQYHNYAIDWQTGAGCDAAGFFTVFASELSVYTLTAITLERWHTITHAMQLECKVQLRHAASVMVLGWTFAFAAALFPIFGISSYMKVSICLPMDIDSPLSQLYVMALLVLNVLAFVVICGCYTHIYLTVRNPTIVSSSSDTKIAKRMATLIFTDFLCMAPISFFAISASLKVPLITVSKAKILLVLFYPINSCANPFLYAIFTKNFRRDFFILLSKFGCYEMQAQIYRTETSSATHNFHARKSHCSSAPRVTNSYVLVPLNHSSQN
- methodNotes: Intracellular cAMP measurement (HTRF) assay, antagonism of EC70 of hFSH
- assayContext: HEK293 cells expressing rFSHR, 1 ng/ml hFSH (EC70), read-out: Class (IC50 to antagonise an EC70 of FSH receptors agonist such as hFSH)
pIC50: −log10 of the molar value.
metricName: pIC50

[[record]]
molecule = "CCc1cc(NC(=O)c2ccc(OC)c(OC)c2)ccc1C(C)(C)CNC(=O)c1cnc2[nH]cnc2c1 [Example 198]"
metricname = "pIC50"
result = "> 6.82"

[[record]]
molecule = "COc1ccc(C(=O)Nc2ccc(C(C)(C)CNC(=O)c3cc(C)[nH]n3)cc2)cc1OC [Example 127]"
metricname = "pIC50"
result = "6.00 to 6.40"

[[record]]
molecule = "COc1ccc(C(=O)Nc2ccc(C(C)(C)CCNC(=O)c3nc4cccnc4[nH]3)cc2)cc1OC [Example 196]"
metricname = "pIC50"
result = "6.40 to 6.82"

[[record]]
molecule = "COc1ccc(C(=O)Nc2ccc(C(C)(C)CNC(=O)c3n[nH]c4ccccc34)cc2)cc1OC [Example 87]"
metricname = "pIC50"
result = "6.40 to 6.82"

[[record]]
molecule = "COc1ccc(C(=O)Nc2ccc(C(C)(C)CNC(=O)c3nn(C)c4ccccc34)c(Cl)c2)cc1OC [Example 121]"
metricname = "pIC50"
result = "6.40 to 6.82"

[[record]]
molecule = "COc1ccc(C(=O)Nc2ccc(C(C)(C)CNC(=O)c3ccc4c(c3)nc(C)n4C)cc2)cc1OC [Example 209]"
metricname = "pIC50"
result = "≤ 6.00"

[[record]]
molecule = "COc1ccc(C(=O)Nc2ccc(C(C)(C)CNC(=O)c3c[nH]c4ncc(F)cc34)cc2)cc1OC [Example 216]"
metricname = "pIC50"
result = "6.40 to 6.82"

[[record]]
molecule = "COc1ccc(C(=O)Nc2ccc(C(C)(C)C#N)c(C(F)(F)F)c2)cc1OC [Example 99]"
metricname = "pIC50"
result = "6.40 to 6.82"

[[record]]
molecule = "COc1ccc(C(=O)Nc2ccc(C(C)(C)C#N)c(-c3cnn(C)c3)c2)cc1OC [Example 205]"
metricname = "pIC50"
result = "6.00 to 6.40"

[[record]]
molecule = "COc1ccc(C(=O)Nc2ccc(C(C)(C)C#N)c(N3CCOCC3)c2)cc1OC [Example 204]"
metricname = "pIC50"
result = "≤ 6.00"

[[record]]
molecule = "COc1ccc(C(=O)Nc2ccc(C(C)(C)CNC(=O)c3ccccn3)cc2)cc1OC [Example 74]"
metricname = "pIC50"
result = "6.40 to 6.82"

[[record]]
molecule = "COc1ccc(C(=O)Nc2ccc(C(C)(C)CNC(=O)c3cn(CCCN(C)C)c4ccc(F)cc34)cc2)cc1OC [Example 192]"
metricname = "pIC50"
result = "≤ 6.00"

[[record]]
molecule = "CCc1cc(NC(=O)c2ccc(OC)c(OC)c2)ccc1C(C)(C)CNC(C)=O [Example 200]"
metricname = "pIC50"
result = "> 6.82"

[[record]]
molecule = "COc1ccc(C(=O)Nc2ccc(C(C)(C)CNC(=O)c3c[nH]c4cnccc34)cc2)cc1OC [Example 215]"
metricname = "pIC50"
result = "6.00 to 6.40"

[[record]]
molecule = "COc1ccc(C(=O)Nc2ccc(C(C)(C)CNC(=O)c3nn(C)c4ccccc34)c(C)c2)cc1OC [Example 110]"
metricname = "pIC50"
result = "6.40 to 6.82"

[[record]]
molecule = "COc1ccc(C(=O)Nc2ccc(C(C)(C)CNC(=O)c3ccc4[nH]c(C)nc4c3)cc2)cc1OC [Example 208]"
metricname = "pIC50"
result = "6.00 to 6.40"


###

Item-by-item account of melting point
metricName: melting point

[[record]]
entrysmiles = "N#CC1(c2ccc(NC(=O)c3ccc4c(c3)OCCO4)cc2)CCCC1"
result = "164 to 167 °C"

[[record]]
entrysmiles = "COc1ccc(C(=O)Nc2ccc(C(C)(C)CNC(=O)c3n[nH]c4ccccc34)cc2)cc1OC"
result = "214 to 216 °C"

[[record]]
entrysmiles = "COc1ccc(C(=O)Nc2ccc(C(C)(C)CNC(=O)c3ccc4nccn4c3)cc2)cc1OC"
result = "194 to 196 °C"

[[record]]
entrysmiles = "COc1ccc(C(=O)Nc2ccc(C(C)(C)c3noc(COc4ccccc4)n3)cc2)cc1OC"
result = "165 to 167 °C"


###

Item-by-item account of pIC50
- system: rat follicle stimulating hormone receptor (rFSHR) (Rattus norvegicus)
- methodNotes: Intracellular cAMP measurement (HTRF) assay, antagonism of EC70 of hFSH
- assayContext: HEK293 cells expressing rFSHR, 1 ng/ml hFSH (EC70), read-out: Class (IC50 to antagonise an EC70 of FSH receptors agonist such as hFSH)
pIC50: −log10 of the molar value.
metricName: pIC50

[[record]]
compound = "COc1ccc(C(=O)Nc2ccc(C(C)(C)CNC(=O)c3cnc4[nH]ccc4c3)cc2)cc1OC [Example 202]"
system = "rat follicle stimulating hormone receptor (rFSHR) (Rattus norvegicus)"
metricname = "pIC50"
result = "> 6.82"

[[record]]
compound = "COc1ccc(C(=O)Nc2ccc(C(C)(C)CNC(=O)c3cnc4ncccn34)cc2)cc1OC [Example 185]"
system = "rat follicle stimulating hormone receptor (rFSHR) (Rattus norvegicus)"
metricname = "pIC50"
result = "6.00 to 6.40"

[[record]]
compound = "COc1ccc(C(=O)Nc2ccc(C(C)(C)CNC(=O)c3nc4ccncc4[nH]3)cc2)cc1OC [Example 214]"
system = "rat follicle stimulating hormone receptor (rFSHR) (Rattus norvegicus)"
metricname = "pIC50"
result = "6.40 to 6.82"

[[record]]
compound = "COc1ccc(C(=O)Nc2cc(Cl)c(C(C)(C)C#N)c(Cl)c2)cc1OC [Example 120]"
system = "rat follicle stimulating hormone receptor (rFSHR) (Rattus norvegicus)"
metricname = "pIC50"
result = "6.40 to 6.82"

[[record]]
compound = "COc1ccc(C(=O)Nc2ccc(C(C)(C)CNC(=O)c3cnc4ccc(F)cn34)cc2)cc1OC [Example 211]"
system = "rat follicle stimulating hormone receptor (rFSHR) (Rattus norvegicus)"
metricname = "pIC50"
result = "> 6.82"

[[record]]
compound = "COc1ccc(C(=O)Nc2ccc(C(C)(C)CNC(=O)c3c[nH]c4ccccc34)cc2)cc1OC [Example 101]"
system = "rat follicle stimulating hormone receptor (rFSHR) (Rattus norvegicus)"
metricname = "pIC50"
result = "6.40 to 6.82"

[[record]]
compound = "COc1ccc(C(=O)Nc2ccc(C(C)(C)CNC(=O)c3cc4ccccc4n3C)cc2)cc1OC [Example 108]"
system = "rat follicle stimulating hormone receptor (rFSHR) (Rattus norvegicus)"
metricname = "pIC50"
result = "6.00 to 6.40"

[[record]]
compound = "COCCn1cc(C(=O)NCC(C)(C)c2ccc(NC(=O)c3ccc(OC)c(OC)c3)cc2)c2cc(F)ccc21 [Example 191]"
system = "rat follicle stimulating hormone receptor (rFSHR) (Rattus norvegicus)"
metricname = "pIC50"
result = "6.40 to 6.82"


Data credit: patent US20100249123A1
